Test system: Rattus norvegicus
protocol: 5-HTP accumulation in limbic system was determined in vivo
Assay type: functional
measurement type: ED50 (µmol/kg)

[
  {
    "molecule": "C=CCNC(=O)c1cccc2c1[C@@H]1CCN(CCC)[C@@H]1CC2",
    "endpoint result": 0.8
  },
  {
    "molecule": "C=CCN1CC[C@H]2c3c(cccc3C(N)=O)CC[C@H]21",
    "endpoint result": 0.04
  },
  {
    "molecule": "CCCN1CC[C@H]2c3c(cccc3C(=O)NCc3ccccc3)CC[C@H]21",
    "endpoint result": 7
  },
  {
    "molecule": "CCCN1CC[C@H]2c3c(cccc3C(N)=O)CC[C@H]21",
    "endpoint result": 0.28
  },
  {
    "molecule": "CN1CC[C@H]2c3c(cccc3C(N)=O)CC[C@H]21",
    "endpoint result": 17.6
  },
  {
    "molecule": "NC(=O)c1cccc2c1[C@@H]1CCN(CC3CC3)[C@@H]1CC2",
    "endpoint result": 1
  },
  {
    "molecule": "CCCN(CCC)C1CCc2cccc(O)c2C1 (configuration not stated) [8-OH-DPAT]",
    "endpoint result": 0.052
  }
]
